Data origin: patent EP4772520A1

Experiment: Single dose toxicity test 1 (intravenous)
Assay type: in vivo, Jcl: ICR mice (female)
Conditions: mouse, in vivo, iv, single intravenous administration, estimated
parameter: LD50 at 240 h

[
  {
    "compound.string": "CCc1c2c(nc3ccc(O[C@@H]4O[C@H](CO)[C@H](O)[C@H](O)[C@H]4O)cc13)-c1cc3c(c(=O)n1C2)COC(=O)[C@]3(O)CC",
    "meas.value": "≥ 200 mg/kg"
  },
  {
    "compound.string": "CCc1c2c(nc3ccc(O[C@@H]4O[C@H](CO)[C@@H](O)[C@H](O)[C@H]4NC(C)=O)cc13)-c1cc3c(c(=O)n1C2)COC(=O)[C@]3(O)CC",
    "meas.value": "≥ 200 mg/kg"
  }
]

----------
Test: Kinetic test in intraperitoneal administration
Type: in vivo, Mice
Details: mouse, in vivo, ip; 30 mg/kg i.p.; read-out: AUC0-1h

[
  {
    "compound": "CCc1c2c(nc3ccc(O[C@@H]4O[C@H](CO)[C@H](O)[C@H](O)[C@H]4O)cc13)-c1cc3c(c(=O)n1C2)COC(=O)[C@]3(O)CC [SN38-βGal]",
    "uom": "ng·h/mL",
    "AUC(0-t) at 1 h": 15400
  }
]

----------
Molecular target: human AChE (Homo sapiens, UniProt P22303)
Sequence (P22303 32-614): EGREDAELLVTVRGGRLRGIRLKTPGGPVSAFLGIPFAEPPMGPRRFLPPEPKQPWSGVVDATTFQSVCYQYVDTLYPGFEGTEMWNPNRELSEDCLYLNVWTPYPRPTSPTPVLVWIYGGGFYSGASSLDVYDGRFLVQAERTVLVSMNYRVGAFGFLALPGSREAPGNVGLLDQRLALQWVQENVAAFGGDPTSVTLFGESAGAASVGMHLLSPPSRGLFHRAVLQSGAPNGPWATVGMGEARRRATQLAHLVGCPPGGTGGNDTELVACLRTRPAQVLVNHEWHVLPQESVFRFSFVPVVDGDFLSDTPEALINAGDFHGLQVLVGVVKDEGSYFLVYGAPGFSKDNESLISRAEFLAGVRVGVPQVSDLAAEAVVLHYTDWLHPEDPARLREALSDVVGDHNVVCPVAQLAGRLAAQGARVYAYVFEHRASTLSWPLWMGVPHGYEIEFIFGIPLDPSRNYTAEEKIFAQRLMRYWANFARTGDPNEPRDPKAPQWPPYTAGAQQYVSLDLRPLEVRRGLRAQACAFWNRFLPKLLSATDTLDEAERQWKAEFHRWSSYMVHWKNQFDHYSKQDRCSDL

[
  {
    "compound.string": "CCc1c2c(nc3ccc(O[C@@H]4O[C@H](CO)[C@H](O)[C@H](O)[C@H]4O)cc13)-c1cc3c(c(=O)n1C2)COC(=O)[C@]3(O)CC",
    "IC50": "1560 µM"
  },
  {
    "compound.string": "CCc1c2c(nc3ccc(O[C@@H]4O[C@H](CO)[C@@H](O)[C@H](O)[C@H]4NC(C)=O)cc13)-c1cc3c(c(=O)n1C2)COC(=O)[C@]3(O)CC",
    "IC50": "1440 µM"
  }
]

----------
Assay: in vivo
Details: marmoset, in vivo, iv, 10 mg/kg, Vd (L/kg), prodrug; 10 mg/kg i.v.; individual marmosets

[
  {
    "molecule": "CCc1c2c(nc3ccc(O[C@@H]4O[C@H](CO)[C@H](O)[C@H](O)[C@H]4O)cc13)-c1cc3c(c(=O)n1C2)COC(=O)[C@]3(O)CC [SN38-βGal]",
    "Vd / L/kg": 0.205
  },
  {
    "molecule": "CCc1c2c(nc3ccc(O[C@@H]4O[C@H](CO)[C@@H](O)[C@H](O)[C@H]4NC(C)=O)cc13)-c1cc3c(c(=O)n1C2)COC(=O)[C@]3(O)CC [SN38-βGlcNAc]",
    "Vd / L/kg": 0.149
  }
]
